Reference source: ChEMBL document CHEMBL2021828

Test: Inhibition of Chromobacterium viscosum lipase using p-nitrophenylbutyrate as substrate by Dixon plot analysis
result.type: Ki (µM)

[[record]]
smiles_record = "CCCC(=O)Oc1ccc(NC(=O)CCC(=O)N[C@@H](Cc2ccccc2)C(=O)N[C@@H](Cc2ccccc2)C(N)=O)cc1"
result_type = "Ki"
unit_of_measure = "µM"
value_reported = 37

[[record]]
smiles_record = "NC(=O)[C@H](Cc1ccccc1)NC(=O)[C@H](Cc1ccccc1)NC(=O)CCC(=O)Nc1ccc(O)cc1"
result_type = "Ki"
unit_of_measure = "µM"
value_reported = 37


(a) CCCCCCCOc1ccc(NC(=O)CCC(=O)N[C@@H](Cc2ccccc2)C(=O)N[C@@H](Cc2ccccc2)C(N)=O)cc1
(b) CCCCOc1ccc(NC(=O)CCC(=O)N[C@@H](Cc2ccccc2)C(=O)N[C@@H](Cc2ccccc2)C(N)=O)cc1
Problem: // which entry reports the smaller Ki, a or b ? Reply with the label of the item you choose.
Result: a
(a: 0.37 µM, b: 2.6 µM)

====

Target: Pancreatic triacylglycerol lipase (Sus scrofa) (UniProt P00591)
Sequence (P00591 whole entry): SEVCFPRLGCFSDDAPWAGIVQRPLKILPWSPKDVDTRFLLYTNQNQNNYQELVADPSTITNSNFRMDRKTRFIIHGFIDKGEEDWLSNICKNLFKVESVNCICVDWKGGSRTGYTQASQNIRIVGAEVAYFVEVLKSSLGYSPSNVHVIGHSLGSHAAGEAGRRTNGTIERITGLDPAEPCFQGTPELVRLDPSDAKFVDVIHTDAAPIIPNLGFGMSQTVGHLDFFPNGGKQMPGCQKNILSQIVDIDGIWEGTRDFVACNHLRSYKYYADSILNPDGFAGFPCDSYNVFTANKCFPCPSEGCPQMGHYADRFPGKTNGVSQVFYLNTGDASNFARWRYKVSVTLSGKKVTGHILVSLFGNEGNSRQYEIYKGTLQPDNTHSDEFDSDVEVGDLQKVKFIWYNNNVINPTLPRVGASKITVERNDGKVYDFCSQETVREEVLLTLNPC
Assay: Inhibition of porcine pancreatic lipase using p-nitrophenylbutyrate as substrate by Dixon plot analysis
Activity calls are given as the source filed them. The calls are words filed in the database; no cut-off is given here.
result.type: inhibition

[[record]]
smiles_record = "CCCCOc1ccc(NC(=O)CCC(=O)N[C@@H](Cc2ccc(O)cc2)C(=O)N[C@@H](Cc2ccccc2)C(N)=O)cc1"
test_system = "Pancreatic triacylglycerol lipase (Sus scrofa) (UniProt P00591)"
value_reported = "inactive"

[[record]]
smiles_record = "CCCC(=O)Oc1ccc(NC(=O)CCC(=O)N[C@@H](Cc2ccccc2)C(=O)N[C@@H](Cc2ccccc2)C(N)=O)cc1"
test_system = "Pancreatic triacylglycerol lipase (Sus scrofa) (UniProt P00591)"
value_reported = "inactive"

[[record]]
smiles_record = "CCCCOc1ccc(NC(=O)CCC(=O)N[C@@H](Cc2ccccc2)C(=O)N[C@@H](Cc2ccccc2)C(N)=O)cc1"
test_system = "Pancreatic triacylglycerol lipase (Sus scrofa) (UniProt P00591)"
value_reported = "inactive"

[[record]]
smiles_record = "CCCCOc1ccc(NC(=O)CCC(=O)N[C@@H](Cc2ccccc2)C(=O)N[C@@H](Cc2ccc(O)cc2)C(N)=O)cc1"
test_system = "Pancreatic triacylglycerol lipase (Sus scrofa) (UniProt P00591)"
value_reported = "inactive"

